# Measured On: human TLR9 (Homo sapiens (Human), UniProt Q9NR96)
# Sequence (Q9NR96 26-1032): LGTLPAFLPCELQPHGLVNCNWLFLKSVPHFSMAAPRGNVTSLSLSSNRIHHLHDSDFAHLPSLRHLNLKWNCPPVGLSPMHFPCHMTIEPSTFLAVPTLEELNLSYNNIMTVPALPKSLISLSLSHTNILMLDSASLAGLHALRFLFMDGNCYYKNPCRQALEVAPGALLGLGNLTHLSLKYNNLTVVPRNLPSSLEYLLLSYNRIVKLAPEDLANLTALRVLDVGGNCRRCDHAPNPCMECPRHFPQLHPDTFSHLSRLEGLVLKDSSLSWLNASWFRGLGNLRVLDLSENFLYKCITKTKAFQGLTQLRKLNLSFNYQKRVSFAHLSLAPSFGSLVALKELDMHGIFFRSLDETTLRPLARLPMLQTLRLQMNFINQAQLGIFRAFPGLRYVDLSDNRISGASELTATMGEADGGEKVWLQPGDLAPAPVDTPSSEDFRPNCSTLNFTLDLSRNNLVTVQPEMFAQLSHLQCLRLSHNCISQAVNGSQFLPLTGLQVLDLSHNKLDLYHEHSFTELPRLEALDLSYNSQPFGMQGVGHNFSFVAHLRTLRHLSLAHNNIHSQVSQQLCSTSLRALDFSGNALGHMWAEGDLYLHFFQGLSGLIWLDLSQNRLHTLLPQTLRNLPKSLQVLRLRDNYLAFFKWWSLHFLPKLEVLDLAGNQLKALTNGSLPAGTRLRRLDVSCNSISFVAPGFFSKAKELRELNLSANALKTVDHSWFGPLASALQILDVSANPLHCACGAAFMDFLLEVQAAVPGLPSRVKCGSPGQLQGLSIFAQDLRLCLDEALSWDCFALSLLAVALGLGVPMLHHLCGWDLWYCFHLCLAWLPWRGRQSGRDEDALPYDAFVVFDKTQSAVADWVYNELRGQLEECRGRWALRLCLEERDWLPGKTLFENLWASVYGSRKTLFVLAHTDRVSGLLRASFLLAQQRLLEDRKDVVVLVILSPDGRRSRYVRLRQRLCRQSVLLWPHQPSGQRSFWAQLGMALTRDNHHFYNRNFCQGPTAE
# Protocol Text: TLR9 inhibition reporter assay (HEK-Blue SEAP);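 further: SEAP driven by an IFN-β minimal promoter with NF-κB and AP-1 sites, read after 22 h, compounds dosed 0.05 nM–50 µM, inhibition scaled between agonist plus DMSO and reference-inhibitor wells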
# Settings: read-out: TLR9 IC50; HEK-Blue cells overexpressing human TLR9, ODN2006 5 nM stimulation, SEAP reporter
Label criterion met when IC50 < 2000 nM; otherwise criterion not met.

[
  {
    "Compound": "Cc1c(-c2[nH]c3ccc(N4CCN(CC(C)(C)O)CC4)nc3c2C(C)C)cn2ncnc2c1C",
    "Class": "criterion not met"
  },
  {
    "Compound": "Cc1c(-c2[nH]c3ccc(N4CCC(NCC5(S(C)(=O)=O)CC5)C4)nc3c2C(C)C)cn2ncnc2c1C (stereo not shown)",
    "Class": "criterion not met"
  },
  {
    "Compound": "CNC1CN(c2ccc3[nH]c(-c4cn5ncnc5c(C)c4C)c(C(C)C)c3n2)C1 [Example 20]",
    "Class": "criterion met"
  },
  {
    "Compound": "CC(C)c1c(-c2cc(CO)c3ncnn3c2)[nH]c2ccc(C3CCC(N(C)C4COC4)CC3)nc12 (stereo not shown) [Example 252]",
    "Class": "criterion not met"
  },
  {
    "Compound": "COc1cc(-c2[nH]c3ccc(C4CCC(N(C)Cc5cnc(C)cn5)CC4)nc3c2C(C)C)cn2ncnc12 (stereo not shown) [Example 203]",
    "Class": "criterion met"
  },
  {
    "Compound": "Cc1c(-c2[nH]c3ccc(N4CC5(CCNCC5)C4)nc3c2C(C)C)cn2ncnc2c1C",
    "Class": "criterion met"
  },
  {
    "Compound": "COCCNCC(=O)N1CCN(c2ccc3[nH]c(-c4cn5ncnc5c(C)c4C)c(C(C)C)c3n2)CC1",
    "Class": "criterion not met"
  },
  {
    "Compound": "Cc1cc(-c2[nH]c3ccc(C4CCC(NCC(=O)N(C)C)CC4)nc3c2C(C)C)cn2ncnc12 (stereo not shown)",
    "Class": "criterion met"
  },
  {
    "Compound": "Cc1c(-c2[nH]c3ccc(C4CCC(N5CCC[C@H]5CO)CC4)nc3c2C(C)C)cn2ncnc2c1C (stereo partly shown) [Example 392]",
    "Class": "criterion met"
  },
  {
    "Compound": "Cc1c(-c2[nH]c3ccc(N4CCN(C)CC4=O)nc3c2C(C)C)cn2ncnc2c1C",
    "Class": "criterion not met"
  },
  {
    "Compound": "CC(C)c1c(-c2cn(C)c3ncccc23)[nH]c2ccc(C3CCC(N4CC5(COC5)C4)CC3)nc12 (stereo not shown)",
    "Class": "criterion met"
  },
  {
    "Compound": "Cc1c(-c2[nH]c3ccc(C4CCC(NC5COC5)CC4)nc3c2C(C)C)cn2ncnc2c1C (stereo not shown) [Example 351]",
    "Class": "criterion met"
  },
  {
    "Compound": "COc1cc(-c2[nH]c3ccc(N4CCN(CC(N)=O)CC4)nc3c2C(C)C)cn2ncnc12",
    "Class": "criterion not met"
  },
  {
    "Compound": "COCCN1CCN(c2ccc3[nH]c(-c4cc(OC)c5ncnn5c4)c(C(C)C)c3n2)CC1",
    "Class": "criterion not met"
  },
  {
    "Compound": "CNC1CCC(c2ccc3[nH]c(-c4cn(C)c5ncncc45)c(C(C)C)c3n2)CC1 (stereo not shown) [Example 296]",
    "Class": "criterion met"
  },
  {
    "Compound": "COc1cc(-c2[nH]c3cc(C)c(C4CCC(NCC(F)F)CC4)nc3c2C(C)C)cn2ncnc12 (stereo not shown) [Example 322]",
    "Class": "criterion not met"
  }
]
